Let's look at some molecules and their measured cell viability.
- Tested on: Vero E6
- assay name: cell viability relative to DMSO; higher = less toxic
- condition summary: 72 h; 1000 nM
measure: cell viability (%)

molecule: CC1=C(C(=O)O)N2C(=O)[C@@H](NC(=O)[C@H](N)C3=CCC=CC3)[C@H]2SC1
observed value: 98.4
//
molecule: NCCCNCCSP(=O)(O)O
observed value: 97.3
//
molecule: NCCc1ccc(O)c(O)c1
observed value: 97
//
molecule: CN(CCOc1ccc(NS(C)(=O)=O)cc1)CCc1ccc(NS(C)(=O)=O)cc1 [dofetilide]
observed value: 98.1
//
molecule: CC(C)[C@H](CO)Nc1nc(Nc2cc(N)cc(Cl)c2)c2ncn(C(C)C)c2n1
observed value: 95.3
//
molecule: CN1CCN(CCCN2c3ccccc3Sc3ccc(S(=O)(=O)N(C)C)cc32)CC1
observed value: 85.2
//
molecule: COc1c(OCCCN2CCOCC2)ccc2c1N=C(NC(=O)c1cnc(N)nc1)N1CCN=C21
observed value: 89.8
//
molecule: c1ccc(OCc2ccc(CCCN3CCOCC3)cc2)cc1
observed value: 100
//
molecule: Cc1ccccc1CN1C(=O)C2=C(CCN(Cc3ccccc3)C2)N2CCN=C12
observed value: 102

---

Let's look at some compounds and their measured relative viability EC50.
- Test system: Vero E6
- assay name: relative viability EC50 (midpoint between 100% and the lowest measured viability); higher = less toxic
- condition summary: 72 h
Structures can show the parent of a compound that is named as a salt.

compound: Cc1cnc(Nc2ccc(OCCN3CCCC3)cc2)nc1Nc1cccc(S(=O)(=O)NC(C)(C)C)c1 [fedratinib]
relative viability EC50: 2.71 µM

compound: C[N+]1(C)[C@@H]2CC[C@H]1C[C@@H](OC(=O)C(CO)c1ccccc1)C2 (stereo partly drawn) [methylatropine-nitrate]
relative viability EC50: > 10 µM

compound: Cc1cn(C[C@H](N)C(=O)O)c(=O)n(Cc2ccsc2C(=O)O)c1=O [UBP-310]
relative viability EC50: > 10 µM

compound: Cc1cccc(/C=C/c2ccccc2)n1 [SIB-1893]
relative viability EC50: > 10 µM

compound: CCN1CCC(n2cc(CNc3cc(Cl)c4ncc(C#N)c(Nc5ccc(F)c(Cl)c5)c4c3)nn2)CC1 [cot-inhibitor-2]
relative viability EC50: > 10 µM

compound: COc1ccc(CC2NCCc3cc(OC)c(OC)cc32)cc1OC (stereo not drawn) [tetrahydropapaverine]
relative viability EC50: > 10 µM

compound: COc1cc(/C=C2\CCCN([C@@H](C)c3ccc(F)cc3)C2=O)ccc1-n1cnc(C)c1 [E-2012]
relative viability EC50: > 10 µM

compound: CC(C)=CCC/C(C)=C/CC/C(C)=C/C=C/C(C)=C/C(=O)O [peretinoin]
relative viability EC50: > 10 µM

compound: O=S(=O)(/N=C/c1c(O)ccc2ccccc12)c1cccs1
relative viability EC50: > 10 µM

compound: NCCc1ccc(O)c(O)c1 [dopamine]
relative viability EC50: > 10 µM

compound: OC(CN1CCN(c2cccc(Cl)c2)CC1)C(c1ccccc1)c1ccccc1 (stereo not drawn)
relative viability EC50: > 10 µM

compound: O=C(O)c1cc(/N=N/c2ccc(S(=O)(=O)Nc3ccccn3)cc2)ccc1O [sulfasalazine]
relative viability EC50: > 10 µM

compound: CCC[C@@H]1C[C@@H](C(=O)N[C@@H]([C@H]2O[C@H](SC)[C@H](O)[C@@H](O)[C@H]2O)[C@H](C)Cl)N(C)C1 [CLINDAMYCIN HYDROCHLORIDE]
relative viability EC50: > 10 µM

compound: Cn1c(=O)c2c(ncn2CCO)n(C)c1=O [etofylline]
relative viability EC50: > 10 µM

compound: Nc1nc2c(c(N3CCNCC3)n1)CCC1=C2[C@@H]2CCCC[C@@H]2O1
relative viability EC50: > 10 µM

compound: Cc1cn(-c2cc(NC(=O)c3ccc(C)c(Nc4nccc(-c5cccnc5)n4)c3)cc(C(F)(F)F)c2)cn1 [nilotinib]
relative viability EC50: > 10 µM

compound: COc1cccc2c1c(O)c(C(=O)N(C)c1ccc(C(F)(F)F)cc1)c(=O)n2C [tasquinimod]
relative viability EC50: > 10 µM

compound: CN1[C@@H]2CC[C@H]1C[C@@H](OC(=O)c1cc(Cl)cc(Cl)c1)C2 [bemesetron]
relative viability EC50: > 10 µM

---

Let's look at some compounds and their measured cell viability.
- Test system: Calu-3
- assay name: cell viability relative to DMSO; higher = less toxic
- condition summary: 72 h; 10 nM

compound: CCn1c(N)c(C(=O)NC)c(=O)c2ccc(C#C[C@@](C)(O)COC)nc21
cell viability / %: 100

compound: COc1ccc(C(=O)CC2(O)C(=O)Nc3c(Cl)ccc(Cl)c32)cc1 (centres undefined)
cell viability / %: 93.2

compound: Cc1cc(-c2ccc(/N=N/c3ccc4c(S(=O)(=O)O)cc(S(=O)(=O)O)c(N)c4c3O)c(C)c2)ccc1/N=N/c1ccc2c(S(=O)(=O)O)cc(S(=O)(=O)O)c(N)c2c1O
cell viability / %: 101

compound: CN1C2CCCC1CC(NC(=O)c1nn(C)c3ccccc13)C2 (centres undefined)
cell viability / %: 106

---

- Test system: Caco-2
- assay name: cell viability relative to DMSO; higher = less toxic
- condition summary: 72 h; 1000 nM
Let's look at some molecules and their measured cell viability.

molecule: CC[C@H]1OC(=O)[C@H](C)[C@@H](O[C@H]2C[C@@](C)(OC)[C@@H](O)[C@H](C)O2)[C@H](C)[C@@H](O[C@@H]2O[C@H](C)C[C@H](N(C)C)[C@H]2O)[C@](C)(OC)C[C@@H](C)C(=O)[C@H](C)[C@@H](O)[C@]1(C)O
cell viability: 100%
--
molecule: CNC(=O)[C@H](Cc1c[nH]c2ccccc12)NC(=O)[C@@H](CC(=O)NO)CC(C)C
cell viability: 96.6%
--
molecule: CCC(=O)N1CCOc2c(cc(-c3ccc(OC)c(OC)c3)cc2OC[C@H]2CCCN(C)C2)C1
cell viability: 98.6%
--
molecule: O=C(CC12CC3CC(CC(C3)C1)C2)Nc1cccc2nc(NCCNCCO)ccc12
cell viability: 91.8%
--
molecule: O=C1c2cc(Cl)ccc2OC2CCON12 (stereo not drawn)
cell viability: 97.4%
--
molecule: N#Cc1ccc2[nH]c(O)c(-c3ccc(CN4CCOCC4)cn3)c2c1
cell viability: 113%
--
molecule: CCCC(=O)O[C@]1(C(=O)CO)CC[C@H]2[C@@H]3CCC4=CC(=O)CC[C@]4(C)[C@H]3[C@@H](O)C[C@@]21C [hydrocortisone-butyrate]
cell viability: 104%
--
molecule: CCN1CCC(n2cc(CNc3cc(Cl)c4ncc(C#N)c(Nc5ccc(F)c(Cl)c5)c4c3)nn2)CC1
cell viability: 94.6%

---

- System: HepG2
- assay name: cell viability relative to DMSO; higher = less toxic
- condition summary: 72 h; 100 nM

molecule: O=C(/C=C/c1ccc2ccc(C(F)(F)F)cc2n1)c1ccncc1
unit spec: %
cell viability: 96.3
//
molecule: CNC(=O)c1ccccc1Sc1ccc2c(/C=C/c3ccccn3)n[nH]c2c1
unit spec: %
cell viability: 108
//
molecule: S=C(NCc1ccc2c(c1)OCO2)N1CCN(c2ncnc3c2oc2ccccc23)CC1
unit spec: %
cell viability: 96.2
//
molecule: CC(C)[C@H](CO)Nc1nc(Nc2cc(N)cc(Cl)c2)c2ncn(C(C)C)c2n1
unit spec: %
cell viability: 93.8
//
molecule: O=C(NCCO)c1cc(C(=O)NCCO)cc(C(=O)NCCO)c1
unit spec: %
cell viability: 101
//
molecule: CCC(=O)O[C@@H](O[P@@](=O)(CCCCc1ccccc1)CC(=O)N1C[C@H](C2CCCCC2)C[C@H]1C(=O)O)C(C)C
unit spec: %
cell viability: 93.7
//
molecule: N#Cc1cc2c(OCC(O)CN3CCN(C(c4ccccc4)c4ccccc4)CC3)cccc2[nH]1 (stereo not drawn)
unit spec: %
cell viability: 96.8
//
molecule: OC(CCN1CCCCC1)(c1ccccc1)C1CC2C=CC1C2 (stereo not drawn)
unit spec: %
cell viability: 99.5

---

Let's look at some compounds and their measured cell viability.
- Tested on: Caco-2
- assay name: cell viability relative to DMSO; higher = less toxic
- condition summary: 72 h; 1000 nM

compound: Cc1cc(O)ccc1Cl [chlorocresol]
assay system: Caco-2
cell viability: 97.4%

compound: COc1cc(OC2CCN(C)CC2)ccc1Nc1ncc2c(n1)n(C1CCCC1)c(=O)n2C [AZ3146]
assay system: Caco-2
cell viability: 95%

compound: CCOC(=O)n1ccn(C)c1=S [carbimazole]
assay system: Caco-2
cell viability: 104%

compound: C=CCN1C[C@H](C)N([C@H](c2ccc(C(=O)N(CC)CC)cc2)c2cccc(O)c2)C[C@H]1C [BW-373U86]
assay system: Caco-2
cell viability: 96.7%

compound: O=C(NNc1nc2cc(F)ccc2n2cccc12)c1cnccn1 [SC-144]
assay system: Caco-2
cell viability: 6.6%
